From: paper PMC7819943

Target: OsWOX13 (Oryza sativa, UniProt Q5QMM3 1-267)
Sequence: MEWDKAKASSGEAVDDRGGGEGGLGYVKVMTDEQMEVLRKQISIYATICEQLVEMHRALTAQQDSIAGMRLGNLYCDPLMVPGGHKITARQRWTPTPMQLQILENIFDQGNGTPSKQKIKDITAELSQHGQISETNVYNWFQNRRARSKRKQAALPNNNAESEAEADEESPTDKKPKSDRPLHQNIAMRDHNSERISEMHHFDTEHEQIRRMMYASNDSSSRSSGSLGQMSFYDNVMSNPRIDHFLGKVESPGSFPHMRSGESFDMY
Test: protein-binding microarray (RPBM); PBS, 2% BSA, 51.3 ng/ul salmon testes DNA, 50 uM zinc acetate, 200 nM TF, 25 C, 1 h; high values mean tight binding
Settings: protein: recombinant; tags: N-terminal polyhistidine and DsRed monomer fusion (pET32a); label: CyDye5-dUTP incorporated in the synthesized complementary strand; 3' TTTTT single-stranded linker to array surface; dsDNA, one strand shown
The full ranking holds about 35,000 sequences; the median of “fluorescence intensity (a.u.)” is about 10,000, and the highest 2% start at about 52,000. The sample holds the highest values, similar sequences and a random draw of the others, so the mix is not that of the screen.
Collected binding signal values appear next to each entry.
attribute_measured: binding signal

{"sequence_data": "TTCTGCTGATTGGAATGACTACAACACTAGAGTTGTCTGTCGGAGTCACCTAGTGCAG", "tgt": "OsWOX13 (Oryza sativa, UniProt Q5QMM3 1-267)", "attribute_measured": "binding signal", "observed_measurement": "56100 fluorescence intensity (a.u.)"}
{"sequence_data": "TATGAATTGACTATTATATTGGCTATGGATGATTTGTAGTCGGAGTCACCTAGTGCAG", "tgt": "OsWOX13 (Oryza sativa, UniProt Q5QMM3 1-267)", "attribute_measured": "binding signal", "observed_measurement": "30100 fluorescence intensity (a.u.)"}
{"sequence_data": "TCCCTGAATTTTAGGAGTGATTGGACCTAAAGTTGAGGAGCGGAGTCACCTAGTGCAG", "tgt": "OsWOX13 (Oryza sativa, UniProt Q5QMM3 1-267)", "attribute_measured": "binding signal", "observed_measurement": "17200 fluorescence intensity (a.u.)"}
{"sequence_data": "CTGGATTGATTGGGAGTGTTGGGTTTCGGGCTAGATCTGGCGGAGTCACCTAGTGCAG", "tgt": "OsWOX13 (Oryza sativa, UniProt Q5QMM3 1-267)", "attribute_measured": "binding signal", "observed_measurement": "65200 fluorescence intensity (a.u.)"}
{"sequence_data": "ACCCATCACTAATCAGTAATCACAGTATTACTATTAAATTCGGAGTCACCTAGTGCAG", "tgt": "OsWOX13 (Oryza sativa, UniProt Q5QMM3 1-267)", "attribute_measured": "binding signal", "observed_measurement": "9220 fluorescence intensity (a.u.)"}
{"sequence_data": "CAGAATGACAACATTGACTGATTGACACTAGAAATACATACGGAGTCACCTAGTGCAG", "tgt": "OsWOX13 (Oryza sativa, UniProt Q5QMM3 1-267)", "attribute_measured": "binding signal", "observed_measurement": "39000 fluorescence intensity (a.u.)"}
{"sequence_data": "TGGAAATTGATGGAGGATGATCTGCAATTAGAAAGAAGAACGGAGTCACCTAGTGCAG", "tgt": "OsWOX13 (Oryza sativa, UniProt Q5QMM3 1-267)", "attribute_measured": "binding signal", "observed_measurement": "29700 fluorescence intensity (a.u.)"}
{"sequence_data": "ACCCACCCTTCAATTAGCCTGTGAATTACTACTTTCTAATCGGAGTCACCTAGTGCAG", "tgt": "OsWOX13 (Oryza sativa, UniProt Q5QMM3 1-267)", "attribute_measured": "binding signal", "observed_measurement": "7460 fluorescence intensity (a.u.)"}
{"sequence_data": "CCGTTGGATTGGAATCGGAGGGCCTACAATGACTGAGTGCCGGAGTCACCTAGTGCAG", "tgt": "OsWOX13 (Oryza sativa, UniProt Q5QMM3 1-267)", "attribute_measured": "binding signal", "observed_measurement": "5860 fluorescence intensity (a.u.)"}
